Record set of IC50 cell viability for target or system PCB-495 (human epithelioid sarcoma primary culture).

>  <smilesRepr>
C[C@@H](Oc1cc(-c2cnn(C3CCNCC3)c2)cnc1N)c1c(Cl)ccc(F)c1Cl

>  <resultComparator>
=

>  <IC50 cell viability (µM)>
1.31

$$$$
>  <smilesRepr>
Cn1c(=O)n(-c2ccc(C(C)(C)C#N)cc2)c2c3cc(-c4cnc5ccccc5c4)ccc3ncc21

>  <resultComparator>
=

>  <IC50 cell viability (µM)>
0.43

$$$$
>  <smilesRepr>
C[C@@H](Oc1ccc2[nH]nc(/C=C/c3cnn(CCO)c3)c2c1)c1c(Cl)cncc1Cl

>  <resultComparator>
=

>  <IC50 cell viability (µM)>
0.19

$$$$
>  <smilesRepr>
CC(C)(C(=O)NCC(F)(F)C(F)(F)F)C(=O)N[C@@H]1C(=O)Nc2ccccc2-c2ccccc21

>  <resultComparator>
>

>  <IC50 cell viability (µM)>
10

$$$$
>  <smilesRepr>
CN1CCc2c(c3ccccc3n2Cc2ccc(C(=O)NO)cc2)C1

>  <resultComparator>
>

>  <IC50 cell viability (µM)>
10

$$$$
